test system: 565232-114-T-J1-PDC complex spheroid viability; assay: Anticancer human tumor 565232-114-T-J1-PDC patient-derived bladder carcinoma cell line growth inhibition [CLK]; conditions: second compound 10 µM; first compound 10 µM; active compounds read low
Listed next: entries and their corresponding viability, T/C.
Quick reminder: number only, in %, skip the unit.

These recorded examples may help you get a feel for the data.
>  <compound>
O=c1[nH]cc(F)c(=O)[nH]1 + CN1CCN(c2cc(C(=O)Nc3cc4cc(-c5cnn(C)c5)ccc4cn3)ccn2)CC1

>  <target_desc>
565232-114-T-J1-PDC complex spheroid viability

>  <viability, T/C [%]>
1.01

$$$$
>  <compound>
COc1ccc([C@@H](O)c2cc(-c3ncnc4cc(N5CCOCC5)ccc34)c(F)cc2Cl)nn1 + CN1CCN(c2cc(C(=O)Nc3cc4cc(-c5cnn(C)c5)ccc4cn3)ccn2)CC1

>  <target_desc>
565232-114-T-J1-PDC complex spheroid viability

>  <viability, T/C [%]>
1.44

$$$$

// moving on: another record for viability, T/C
Q. Query: viability, T/C; subject: COC1C=CCC(C)C(C)S(=O)(=O)NC(=O)c2ccc3c(c2)N(CC2CCC21)CC1(CCCc2cc(Cl)ccc21)CO3 (configuration not stated) + CNC(=O)c1ccc(Nc2nc(OC3CCCC3)c3c(-c4ccc5nc(C)oc5c4)c[nH]c3n2)c(OC)c1
A. 3.09

----------
Measured viability, T/C, listed per entry for reference.
test system: 565232-114-T-J1-PDC complex spheroid viability; assay: Anticancer human tumor 565232-114-T-J1-PDC cell line growth inhibition [CLK]; details: second compound 3.16 µM; first compound 0.1 µM; active compounds read low;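 further: spheroids exposed to compounds for 7 days before readout; 100% = DMSO vehicle wells with luminescence normalized to vehicle control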
Please state the figure in %; there is no need to write the unit.

>  <molecule>
CC(Nc1ccc2c(c1)OCCn1cc(N3C(=O)OCC3C(F)F)nc1-2)C(N)=O (configuration not stated) + CNC(=O)c1ccc(Nc2nc(OC3CCCC3)c3c(-c4ccc5nc(C)oc5c4)c[nH]c3n2)c(OC)c1

>  <target_desc>
565232-114-T-J1-PDC complex spheroid viability

>  <measurement>
10.4

$$$$
>  <molecule>
CC(CO)NC(=O)c1cc(-c2ccc(Cl)cc2)nn(-c2cnn(C)c2)c1=O (configuration not stated) + CN1CCN(c2cc(C(=O)Nc3cc4cc(-c5cnn(C)c5)ccc4cn3)ccn2)CC1

>  <target_desc>
565232-114-T-J1-PDC complex spheroid viability

>  <measurement>
0.65

$$$$
>  <molecule>
CC(=O)O[C@H]1C(=O)[C@@]2(C)[C@H]([C@H](OC(=O)c3ccccc3)[C@]3(O)C[C@H](OC(=O)[C@H](O)[C@@H](NC(=O)c4ccccc4)c4ccccc4)C(C)=C1C3(C)C)[C@]1(OC(C)=O)CO[C@@H]1C[C@@H]2O + CNC(=O)c1ccc(Nc2nc(OC3CCCC3)c3c(-c4ccc5nc(C)oc5c4)c[nH]c3n2)c(OC)c1

>  <target_desc>
565232-114-T-J1-PDC complex spheroid viability

>  <measurement>
25.5

$$$$
>  <molecule>
C#Cc1c(F)ccc2cc(O)cc(-c3ncc4c(N5CC6CCC(C5)N6)nc(OCC56CCCN5CC(F)C6)nc4c3F)c12 (configuration not stated) + CN1CCN(c2cc(C(=O)Nc3cc4cc(-c5cnn(C)c5)ccc4cn3)ccn2)CC1

>  <target_desc>
565232-114-T-J1-PDC complex spheroid viability

>  <measurement>
3.14

$$$$
>  <molecule>
CC1COCCN1c1cc(C2(S(C)(=N)=O)CC2)nc(-c2ccnc3[nH]ccc23)n1 (configuration not stated) + CNC(=O)c1ccc(Nc2nc(OC3CCCC3)c3c(-c4ccc5nc(C)oc5c4)c[nH]c3n2)c(OC)c1

>  <target_desc>
565232-114-T-J1-PDC complex spheroid viability

>  <measurement>
17.4

$$$$

Q. // lookup viability, T/C for Nc1ccn(C2OC(CO)C(O)C2(F)F)c(=O)n1 (configuration not stated) + CNC(=O)c1ccc(Nc2nc(OC3CCCC3)c3c(-c4ccc5nc(C)oc5c4)c[nH]c3n2)c(OC)c1
A. 14.5

Q. Try this molecule too: Nc1ccccc1NC(=O)c1ccc(CNC(=O)OCc2cccnc2)cc1 + CNC(=O)c1ccc(Nc2nc(OC3CCCC3)c3c(-c4ccc5nc(C)oc5c4)c[nH]c3n2)c(OC)c1
A. 16.4

----------
Tested on: 565232-114-T-J1-PDC complex spheroid viability
Test: Anticancer human tumor 565232-114-T-J1-PDC cell line growth inhibition [CLK]; active = viability on the fitted dose curve at most 10% of control; inactive = the rest;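 further: spheroids exposed to compounds for 7 days before readout; 100% = DMSO vehicle wells with luminescence normalized to vehicle control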
Conditions: second compound 3.16 µM; first compound 3.16 µM
Description: A high-throughput screen of multi-cell type tumor spheroids was designed to identify active combinations of […] and targeted small molecules. Complex spheroids include a stromal component modeled by human endothelial cells (HUVEC) and fibroblasts modeled by human mesenchymal stem cells (MSCs). […] Compounds. […] If the clinical Cmax for an agent had not been determined, the highest concentration tested was 10 microM. […]
Reply using exactly one outcome from 1 (yes) (active), 0 (no) (inactive)

Q. Recorded test outcome, item O=c1[nH]cc(F)c(=O)[nH]1 + CN1CCN(c2cc(C(=O)Nc3cc4cc(-c5cnn(C)c5)ccc4cn3)ccn2)CC1
A. 1 (yes)

Q. Another molecule to look at: CCCS(=O)(=O)Nc1ccc(F)c(C(=O)c2c[nH]c3ncc(-c4ccc(Cl)cc4)cc23)c1F + CNC(=O)c1ccc(Nc2nc(OC3CCCC3)c3c(-c4ccc5nc(C)oc5c4)c[nH]c3n2)c(OC)c1
A. 0 (no)

Q. Param item: C=CC(=O)N1CCN(c2nc(=O)n(-c3c(C)ccnc3C(C)C)c3nc(-c4c(O)cccc4F)c(F)cc23)C(C)C1 (centres undefined) + CNC(=O)c1ccc(Nc2nc(OC3CCCC3)c3c(-c4ccc5nc(C)oc5c4)c[nH]c3n2)c(OC)c1
A. 0 (no)

----------
Collected viability, T/C values appear next to each entry.
test system: 565232-114-T-J1-PDC complex spheroid viability; test: Anticancer human tumor 565232-114-T-J1-PDC cell line growth inhibition [CLK]; settings: second compound 0.1 µM; first compound 3.16 µM; active compounds read low;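 further: spheroids exposed to compounds for 7 days before readout; 100% = DMSO vehicle wells with luminescence normalized to vehicle control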
Number only, in %; omit the unit.

A selection of reference data follows.
>  <compound>
COc1cccc2c1C(=O)c1c(O)c3c(c(O)c1C2=O)CC(O)(C(=O)CO)CC3OC1CC(N)C(O)C(C)O1 (stereo not drawn) + CNC(=O)c1ccc(Nc2nc(OC3CCCC3)c3c(-c4ccc5nc(C)oc5c4)c[nH]c3n2)c(OC)c1

>  <target_desc>
565232-114-T-J1-PDC complex spheroid viability

>  <viability, T/C [%]>
0.22

$$$$
>  <compound>
CCCS(=O)(=O)Nc1ccc(F)c(C(=O)c2c[nH]c3ncc(-c4ccc(Cl)cc4)cc23)c1F + CNC(=O)c1ccc(Nc2nc(OC3CCCC3)c3c(-c4ccc5nc(C)oc5c4)c[nH]c3n2)c(OC)c1

>  <target_desc>
565232-114-T-J1-PDC complex spheroid viability

>  <viability, T/C [%]>
30.8

$$$$

Now take the following compound into account.
Q. Item under review: COC1C=CCC(C)C(C)S(=O)(=O)NC(=O)c2ccc3c(c2)N(CC2CCC21)CC1(CCCc2cc(Cl)ccc21)CO3 (stereo not drawn) + CNC(=O)c1ccc(Nc2nc(OC3CCCC3)c3c(-c4ccc5nc(C)oc5c4)c[nH]c3n2)c(OC)c1 . Reported viability, T/C?
A. 7.48

----------
System: 565232-114-T-J1-PDC complex spheroid viability
Assay: Anticancer human tumor 565232-114-T-J1-PDC cell line growth inhibition [CLK];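 further: spheroids exposed to compounds for 7 days before readout; 100% = DMSO vehicle wells with luminescence normalized to vehicle control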
Settings: second compound 0.0316 µM; first compound 0.1 µM; active compounds read low
Source text: A high-throughput screen of multi-cell type tumor spheroids was designed to identify active combinations of […] and targeted small molecules. Complex spheroids include a stromal component modeled by human endothelial cells (HUVEC) and fibroblasts modeled by human mesenchymal stem cells (MSCs). […] Compounds. […] If the clinical Cmax for an agent had not been determined, the highest concentration tested was 10 microM. […]
assay_readout: viability, T/C

Example results:
>  <compound>
CC(CO)NC(=O)c1cc(-c2ccc(Cl)cc2)nn(-c2cnn(C)c2)c1=O (configuration not stated) + CNC(=O)c1ccc(Nc2nc(OC3CCCC3)c3c(-c4ccc5nc(C)oc5c4)c[nH]c3n2)c(OC)c1

>  <target_desc>
565232-114-T-J1-PDC complex spheroid viability

>  <viability, T/C>
74.3%

$$$$
>  <compound>
CC(=O)O[C@H]1C(=O)[C@@]2(C)[C@H]([C@H](OC(=O)c3ccccc3)[C@]3(O)C[C@H](OC(=O)[C@H](O)[C@@H](NC(=O)c4ccccc4)c4ccccc4)C(C)=C1C3(C)C)[C@]1(OC(C)=O)CO[C@@H]1C[C@@H]2O + CNC(=O)c1ccc(Nc2nc(OC3CCCC3)c3c(-c4ccc5nc(C)oc5c4)c[nH]c3n2)c(OC)c1

>  <target_desc>
565232-114-T-J1-PDC complex spheroid viability

>  <viability, T/C>
9.42%

$$$$
>  <compound>
O=c1[nH]cc(F)c(=O)[nH]1 + CNC(=O)c1ccc(Nc2nc(OC3CCCC3)c3c(-c4ccc5nc(C)oc5c4)c[nH]c3n2)c(OC)c1

>  <target_desc>
565232-114-T-J1-PDC complex spheroid viability

>  <viability, T/C>
96.8%

$$$$

Shift focus to the following entry.
Q. Give its viability, T/C value. Item: COc1ccc([C@@H](O)c2cc(-c3ncnc4cc(N5CCOCC5)ccc34)c(F)cc2Cl)nn1 + CN1CCN(c2cc(C(=O)Nc3cc4cc(-c5cnn(C)c5)ccc4cn3)ccn2)CC1
A. 95.6%
